Origin of the recorded values: PubChem BioAssay (Tox21)

- assayedSystem: Beta-2 adrenergic receptor (Homo sapiens)
- methodNotes: Adrenergic beta2 receptor (ADRB2) small molecule antagonists, cell-based qHTS assay (AID 1963592); note: % is set by controls: 0 for no effect and ±100 for the full control effect; nearly all actives have a fitted effect of over 50% in size
- testSettings: CHO-ADRB2 cells, isoproterenol-stimulated cAMP HTRF ratio, 0.5 h; series mostly up to 92.4 µM
Results filed as inconclusive are left out. Activity calls are given as the source filed them. Calls come from the whole dose curve.
metricName: outcome

Known results for compounds:
CCOc1nc2cccc(C(=O)OC(C)OC(=O)OC3CCCCC3)c2n1Cc1ccc(-c2ccccc2-c2nn[nH]n2)cc1 (stereo not given)	inactive
CC(C)O	inactive
C=C[Si]1(C)O[Si](C)(C=C)O[Si](C)(C=C)O[Si](C)(C=C)O1 (stereo not given)	inactive
COC(=O)C1=C(C)NC(C)=C(C(=O)OC)C1c1ccccc1[N+](=O)[O-]	inactive
CCC(CC)Nc1ccc(C)c(C)c1	inactive

For the next question, use this compound.
Form field outcome, entry CCC(=O)OCCc1ccccc1 : inactive

----------
- methodNotes: Nuclear factor erythroid 2-related factor 2/antioxidant responsive element (Nrf2/ARE) small molecule agonists: luciferase reporter gene qHTS assay in human keratinocytes (AID 1919969); note: nearly all actives have a fitted effect of over 35% in size
- testSettings: KeratinoSens HaCaT ARE-luciferase, luminescence, 24 h; series mostly up to 92.4 µM
Inconclusive results are not listed. Active and inactive are the calls of the source. Calls come from the whole dose curve.
Outcome field: choose from active, inactive

O=C(O)c1cccnc1Nc1cccc(C(F)(F)F)c1	active
Oc1cc2ccccc2c2ccccc12	inactive
CCCCN(CCCC)CCC(O)c1cc2c(Cl)cc(Cl)cc2c2cc(C(F)(F)F)ccc12 (centres undefined)	inactive
CC1=C(C=O)C(C)(C)CCC1	inactive
NNC(=O)CP(=O)(c1ccccc1)c1ccccc1	inactive

Exercise: Test call, this molecule: CC/C(=C(/c1ccc(O)cc1)c1ccc(OCCN(C)C)cc1)c1ccccc1
Solution: inactive

Exercise: Test call, this molecule: CCC[Si](OC)(OC)OC
Solution: inactive

Exercise: Test call, this molecule: O=C(O)CNC(=O)c1ccccc1
Solution: inactive

Exercise: Test call, this molecule: Oc1ccccc1F
Solution: inactive

Exercise: Test call, this molecule: CCOC(=O)C1=NN(c2ccccc2)C(=O)C1
Solution: inactive

Exercise: Test call, this molecule: CCCCOCCOC(=O)COc1nc(Cl)c(Cl)cc1Cl
Solution: inactive

Exercise: Test call, this molecule: CCCC(CC)c1ccccc1 (centres undefined)
Solution: inactive

Exercise: Test call, this molecule: Cc1ccc(O)c(C(C)(C)C)c1
Solution: inactive

Exercise: Test call, this molecule: CC(C)C[C@H](NC(=O)[C@H](Cc1ccccc1)NC(=O)c1cnccn1)B(O)O
Solution: active

----------
- assayedSystem: D(2) dopamine receptor (Homo sapiens)
- methodNotes: Dopamine D2 receptor (DRD2) small molecule antagonists, cell-based qHTS assay (AID 1963595); note: % is set by controls: 0 for no effect and ±100 for the full control effect
- testSettings: HEK293-DRD2 cAMP HTRF antagonist mode; series mostly up to 92.4 µM
- Description: National Center for Advancing Translational Sciences [NCATS] Division of Preclinical Innovation [DPI] U.S. Environmental Protection Agency [EPA] National Institutes of Environmental Health Sciences [NIEHS] National Toxicology Program [NTP] […] DRD2-Hek293 cells were dispensed at 600 cells/3uL/well in 1536-well white plates using a Multidrop Dispenser. […] The fluorescence intensity in the plates was measured at 340 nm excitation and 665 & 620 nm emission by an Envision plate reader.
Inconclusive results are not listed. Active and inactive are the calls of the source. Calls follow the shape of the dose curve; as a rule, active = well fitted inhibition curve with a large enough effect in the signal ratio in the repeat runs, with a control signal flat; inconclusive = weak or mixed curves, or effect the other way; inactive = flat fitted curve, though single readings scatter; the % refers to the signal ratio.
Outcome field: choose from 1 for active, -1 for inactive

Exercise: Test call, this molecule: CC(C)COC(=O)C(C)C
Solution: -1

Exercise: Test call, this molecule: OC/C=C/c1ccccc1
Solution: -1

Exercise: Test call, this molecule: N#CCCN(CCO)CCO
Solution: -1

Exercise: Test call, this molecule: CC1(C)C(=O)N(Cl)C(=O)N1Br
Solution: -1

Exercise: Test call, this molecule: CC/C=C\CCCCCO
Solution: -1

Exercise: Test call, this molecule: O=C1CCC(=O)N1Cl
Solution: -1

Exercise: Test call, this molecule: O=C(O)COc1nn(Cc2ccccc2)c2ccccc12
Solution: -1

Exercise: Test call, this molecule: CC(C)(C)c1cc(O)c(C(C)(C)C)cc1O
Solution: -1

Exercise: Test call, this molecule: N=C(N)N
Solution: -1

Exercise: Test call, this molecule: c1ccc(CN(Cc2ccccc2)Cc2ccccc2)cc1
Solution: -1

Exercise: Test call, this molecule: CCc1cccc2c(CCO)c[nH]c12
Solution: -1

Exercise: Test call, this molecule: CC(=O)Oc1cccc(C)c1
Solution: -1

Exercise: Test call, this molecule: CCOC(=O)c1ccc(C#Cc2ccc3c(c2)C(C)(C)CCS3)nc1
Solution: -1
